Numbers sourced from PubChem BioAssay (EPA / NIEHS).

# Assay Info: Tanguay_ZF_120hpf_TRUN_legacy: (Legacy) Oregon State University Tanguay Lab 120 Hour Post-fertilization zebrafish Assay for Truncated Body (AID 2283655)
Records with an inconclusive call do not appear. The source made the active and inactive calls. Rule for the calls: active = hit-call score of the fitted dose curve at least 0.9, where 1 is the maximum; inconclusive = response in the unintended direction; inactive = score below 0.9.
Use one of these outcomes when replying: True for active, False for inactive

Worked examples follow.
compound=CC(C)Oc1cc(-n2nc(C(C)(C)C)oc2=O)c(Cl)cc1Cl label_value=False
compound=CS/C(C)=N/OC(=O)N(C)SN(C)C(=O)O/N=C(\C)SC label_value=False
compound="CCOC(=O)CC(SP(=S)(OC)OC)C(=O)OCC (stereo not given)" label_value=True
compound=CC1=C(C(=O)Nc2ccccc2)SCCO1 label_value=False
compound=CCOP(=S)(OCC)SCn1c(=O)oc2cc(Cl)ccc21 label_value=False

API: the following record is the query input.
input: Just curious, what result did CCOC(=O)C(Cl)Cc1cc(-n2nc(C)n(C(F)F)c2=O)c(F)cc1Cl (stereo not given) get here?
output: False
